For reference, MEAN CpLDH INHIBITION (%) measured on recombinant CpLDH protein (Cryptosporidium parvum, UniProt Q9GT92, F198L/K295E/R251K):
# number only, unit % dropped from output

COc1cc(CC(=O)c2cc3c(cc2-c2ccccc2)OCO3)cc(OC)c1OC
-12.60
CN=c1sc2c(n1C)C(=O)c1ccccc1C2=O
-27.66
COc1cc2c(c3oc4cccc(O)c4c(=O)c13)[C@@H]1C=CO[C@@H]1O2
-20.51
O=S(=O)(O)SC/C=C\CSS(=O)(=O)O.[Na+]
-27.85
O=C(O)/C=C\C(=O)O.[N-]=[N+]=Nc1ccc2c(c1)Sc1ccccc1N2CCCCN1CCN(Cc2ccc(C(=O)c3ccccc3)cc2)CC1
-97.54
OC(CBr)C(O)C(O)C(O)CBr (stereo not drawn)
-42.37

Task: Please report the recorded MEAN CpLDH INHIBITION (%) for CN(C)c1ccc(/C=N/N=C2\C(=O)Nc3c(Cl)cc(Cl)cc32)cc1 .
Result: -11.09

Task: Try the compound C[C@H](CN(C)C)C(=O)c1ccccc1C(=O)O
Result: -3.61

Task: Can you handle O=C1C(=O)c2ccccc2C(O)=C1CCCc1ccc(Oc2ccccc2)cc1 next?
Result: -0.53

* * *

Biological target: recombinant CpLDH protein (Cryptosporidium parvum, UniProt Q9GT92, F198L/K295E/R251K)
Returns the class for an entry based on its MEAN CpLDH INHIBITION (%). Class ranges: bin 1 (below -30%), bin 2 (-30% to below -20%), bin 3 (-20% or more)

CC(C)CCCCCCCCCCCCC(=O)NCC(=O)NC1C(O)C(O)C(Nc2ncnc3nc[nH]c23)OC1C(O)CO (stereo not drawn)
bin 1
Nc1ccn([C@@H]2C=C(CO)[C@@H](O)[C@H]2O)c(=O)n1
bin 2
CCOC(=O)CCn1ncc(Cl)c(Cl)c1=O
bin 2
O=[N+]([O-])c1ccc2c(c1)/C(=N/N=C1c3ccccc3Cc3ccccc31)c1cc([N+](=O)[O-])cc([N+](=O)[O-])c1-2
bin 3
CC1(C)NC(=O)N(CCCCCCN2C(=O)NC(C)(C)C2=O)C1=O
bin 2

Task: Class for CN(C)c1ccc(/C=C/C(=O)c2ccccc2)cc1Br ?
Result: bin 2

Task: Same question, O=C1Cc2c(-c3ccccc3)cc(-c3cccc(Cl)c3)nc2-c2ccccc2N1 this time
Result: bin 2

Task: What do we get for BrCCC[P+](c1ccccc1)(c1ccccc1)c1ccccc1.[Br-] ?
Result: bin 1

Task: // repeat for CC1(O)C=CC(=O)C=C1 and report
Result: bin 3

Task: Next up: O=[N+]([O-])c1ccc2oc(=Nc3ccccc3)c(Nc3ccccc3)nc2c1
Result: bin 3

* * *

Biological target: recombinant CpLDH protein (Cryptosporidium parvum, UniProt Q9GT92, F198L/K295E/R251K)
Conditions: pyruvate/NADH: reduction reaction; lactate/NAD+: oxidation reaction
RECORDED ENDPOINT: Vmax

Solved cases below.
NC(=O)c1ccc[n+]([C@@H]2O[C@H](COP(=O)([O-])OP(=O)(O)OC[C@H]3O[C@@H](n4cnc5c(N)ncnc54)[C@H](O)[C@@H]3O)[C@@H](O)[C@H]2O)c1 [NAD^+]
0.07 nmol⁻¹ µg⁻¹ min⁻¹
CC(=O)C(=O)O [Pyruvate, pyruvate]
5.04 nmol⁻¹ µg⁻¹ min⁻¹
CC(O)C(=O)O (stereo not shown) [Lactate, lactate]
0.04 nmol⁻¹ µg⁻¹ min⁻¹

Next, consider the following molecule.
Task: Entry under review: NC(=O)C1=CN([C@@H]2O[C@H](COP(=O)(O)OP(=O)(O)OC[C@H]3O[C@@H](n4cnc5c(N)ncnc54)[C@H](O)[C@@H]3O)[C@@H](O)[C@H]2O)C=CC1 [NADH] . Reported Vmax?
Result: 6.29 nmol⁻¹ µg⁻¹ min⁻¹

* * *

Target: recombinant CpLDH protein (Cryptosporidium parvum, UniProt Q9GT92, F198L/K295E/R251K)
The threshold is inclusive: MEAN CpLDH INHIBITION (%) of exactly -30% counts as MET; values below receive NOT MET.

Solved entries:
CN(CCc1ccccn1)c1ccc2c(c1)C(=O)c1ccccc1-2
NOT MET
S=C(Nc1ccccc1)N(/N=C/C=C/c1ccccc1)c1nnc(-c2ccccc2)c(-c2ccccc2)n1
MET
Cc1nn(-c2ccccc2)c2c1CC(=O)Nc1ccccc1-2
NOT MET

Task: Record Cc1ccc(S(=O)(=O)c2ccccc2[N+](=O)[O-])cc1 ; criterion: MEAN CpLDH INHIBITION (%) no lower than -30%. Met?
Result: MET

Task: Please answer likewise for N=N/C(=C\c1c(O)[nH]c2ccccc12)c1ccccc1
Result: MET

Task: Queued: O=C(O)c1cc(CCc2cc(O)ccc2O)ccc1O
Result: NOT MET

Task: And Cc1ccc(CC2(OCCN(C)C)CCC(C(C)(C)C)CC2)cc1.O=C(O)/C=C/C(=O)O (stereo not drawn) [NSC670225] ?
Result: NOT MET

* * *

Biological target: recombinant CpLDH protein (Cryptosporidium parvum, UniProt Q9GT92, F198L/K295E/R251K)
Lab note: compare MEAN CpLDH INHIBITION (%) with -60%, writing True if less and False if equal or more.

Some solved cases for reference:
CN(C)CCOC1(Cc2ccc(Cl)cc2Cl)CCC(C(C)(C)C)CC1.Cl (stereo not shown) [NSC670224]
True
NC(N)=NCCCS(=O)(=O)Nc1ccc(Nc2c3ccccc3nc3cc([N+](=O)[O-])ccc23)cc1 [NSC177365]
True
CO[C@H]1Nc2c(ccc(C)c2O)C(=O)N2C=C(/C=C/C(N)=O)C[C@@H]12 [NSC106408]
False
COc1ccc2cc(CN3CCC(C4CCN(Cc5ccc6cc(OC)ccc6c5)CC4)CC3)ccc2c1.Cl [NSC683792]
True
O=C1c2ccccc2-c2c1c1ccccc1c(=O)n2Cc1ccccc1 [NSC337612]
False
CC[C@@]1(O)C[C@H](O[C@H]2C[C@H](N(C)C)[C@H](O)[C@H](C)O2)c2c(O)c3c(c(O)c2[C@H]1O[C@H]1C[C@H](N(C)C)[C@H](O)[C@H](C)O1)C(=O)c1cccc(O)c1C3=O [NSC136044]
True

Task: Strictly below -60% in MEAN CpLDH INHIBITION (%)? CC(=O)O[C@H]1C(=O)[C@@]2(C)[C@H]([C@H](OC(=O)c3ccccc3)[C@]3(O)C[C@H](O)C(C)=C1C3(C)C)[C@]1(OC(C)=O)CO[C@@H]1C[C@@H]2O [NSC330753]
Result: True

* * *

Target: recombinant CpLDH protein (Cryptosporidium parvum, UniProt Q9GT92, F198L/K295E/R251K)
Each entry gets Not fulfilled if its MEAN CpLDH INHIBITION (%) stays under -20%, and Fulfilled if its MEAN CpLDH INHIBITION (%) is -20% or above.

Cc1ccc(NC(=O)c2cccc([N+](=O)[O-])c2O)c([N+](=O)[O-])c1
Fulfilled
COC(=O)c1ccc(NCc2cc(O)ccc2O)cc1
Fulfilled
O=C(Nc1ccccc1-c1nn(C(=S)Nc2ccccc2)c(=S)n(C(=S)Nc2ccccc2)c1=O)C(F)(F)F
Not fulfilled

Task: Hi, just wondering whether OCCNCCN1CCN(CCCN2c3ccccc3Sc3ccc(C(F)(F)F)cc32)CC1 shows MEAN CpLDH INHIBITION (%) of -20% or higher.
Result: Not fulfilled

Task: What about this compound? CC(=O)O[C@]1(C(C)=O)CC[C@H]2[C@@H]3C[C@H](C)C4=CC(=O)C=C[C@]4(C)[C@@]3(F)[C@@H](O)C[C@@]21C
Result: Not fulfilled

Task: And BrC(/C=N/Nc1nnc(-c2ccccc2)c(-c2ccccc2)n1)C(Br)c1ccccc1 (centres unmarked) ?
Result: Fulfilled

Task: And for COC(=O)C1=CC(=O)C(C(=O)Nc2ccc(OC)cc2)C(c2ccccc2)O1 (centres unmarked) ?
Result: Not fulfilled

Task: Follow-up entry: COc1c2c(c(OC)c3c1c(=O)c1ccccc1n3C)OCO2
Result: Not fulfilled

* * *

Biological target: recombinant CpLDH protein (Cryptosporidium parvum, UniProt Q9GT92, F198L/K295E/R251K)
MEAN CpLDH INHIBITION (%) vs -20%: at or above is t, below is f.

Task: Quick check: does CC(=O)c1sc2c(c1OC(=O)c1ccc(Cl)cc1Cl)c(=O)n(-c1ccccc1)c(=S)n2-c1ccccc1 have MEAN CpLDH INHIBITION (%) greater than or equal to -20%?
Result: t

Task: Repeat for the following compound: CCOc1ccccc1NC(=O)CC1Sc2ccccc2NC1=O (stereo not drawn)
Result: t

Task: Param item: CC1=C(CCC(=O)O)c2cc3nc(cc4[nH]c(cc4C)cc4[nH]c(cc1n2)cc4C)C(C)=C3CCC(=O)O
Result: t

Task: Same thing, different compound: Cc1ccc(NC(=O)c2cc3ccccc3c(N=Nc3ccccc3O)c2O)c(C)c1
Result: f
